Test system: P388 leukemia ip, CD2F1 mice, survival T/C
test-method-notes: NCI In Vivo Anticancer Drug Screen. Data for tumor model P388 Leukemia (intraperitoneal) in CD2F1 (CDF1) mice
protocol-conditions: endpoint: median survival time; dose: 50.0 mg/kg/injection; schedule: Q01DX009 (ip); vehicle: saline with Tween-80; higher = longer survival
Inconclusive results and toxic doses are left out.
The entries below come with measured T/C values attached.

Example molecules with recorded T/C:
> print(dat)
                                   molecule                       experimental.target            result
1  Cc1ccc(Nc2cccc3c2C(=O)c2cccc(Nc4ccc(C)cc4S(=O)(=O)O)c2C3=O)c(S(=O)(=O)O)c1  P388 leukemia ip, CD2F1 mice, survival T/C  108 % of control
2  CN(C)c1ccc(C=Nc2ccc(OCCCCCCCCCCC(=O)O)cc2)cc1  P388 leukemia ip, CD2F1 mice, survival T/C   93 % of control
3  C/C(=N\Nc1ccc([N+](=O)[O-])cc1[N+](=O)[O-])C1CC1  P388 leukemia ip, CD2F1 mice, survival T/C  106 % of control

Task: Fill in the blank: the reported T/C of Cc1cc(Cl)ccc1NC(=O)/N=C1\NC(=O)CS1 is ____.
Result: 87 % of control

Task: Another molecule to look at: CC(=O)OCC1OC(n2ncc(=S)[nH]c2=O)C2OC(C)(C)OC12 (stereo unspecified)
Result: 92 % of control

Task: Another molecule to look at: COc1cc2nc(C)n(C)c(=O)c2cc1OC
Result: 101 % of control

---

The entries below come with measured T/C values attached.
Tested on: P388 leukemia ip, CD2F1 mice, survival T/C
test-method-notes: NCI In Vivo Anticancer Drug Screen. Data for tumor model P388 Leukemia (intraperitoneal) in CD2F1 (CDF1) mice
protocol-conditions: endpoint: median survival time; dose: 100.0 mg/kg/injection; schedule: Q01DX001 (ip); vehicle: saline; higher = longer survival
Inconclusive results and toxic doses are left out.

> print(dat)
                                   compound            result
1                          Cn1nnn(C)c1=NC#N  100 % of control
2  C=C1CC2(CC(C(C)C)CCC2C)OC1=O (configuration not stated)  105 % of control

Task: Fill in the blank: the reported T/C of C=CC[S+]1CCSC1C(=O)OCC (configuration not stated) is ____.
Result: 95 % of control

Task: Another compound to look at: CCCC1(CCC)NC(=O)N(CC(=O)OCC)C1=O
Result: 105 % of control

Task: Another compound to look at: O=C1CSCc2nc3ccccc3n21
Result: 95 % of control

Task: Another compound to look at: O=C1c2ccccc2-c2nc3ccccc3n21
Result: 100 % of control

Task: Another compound to look at: O=C1CN=C(c2ccc[nH]2)c2cc(Cl)ccc2N1
Result: 109 % of control

---

System: P388 leukemia ip, CD2F1 mice, survival T/C
test-method-notes: NCI In Vivo Anticancer Drug Screen. Data for tumor model P388 Leukemia (intraperitoneal) in CD2F1 (CDF1) mice
protocol-conditions: endpoint: median survival time; dose: 200.0 mg/kg/injection; schedule: Q01DX009 (ip); vehicle: saline with Tween-80; higher = longer survival
Toxic doses and inconclusive results are not listed.
parameter-measured: T/C

Example molecules with recorded T/C:
> print(dat)
                                   molecule  parameter.measured            result
1  COc1ccc2c(c1)OC/C(=C\c1ccc([N+](=O)[O-])o1)C2=O                 T/C   86 % of control
2                          N#Cc1ccc[nH]c1=S                 T/C  104 % of control
3  CC1(C)CC(OP(=O)(OCCN2CC2)OCCN2CC2)CC(C)(C)N1O                 T/C   96 % of control

Task: Fill in the blank: the reported T/C of O=C(NC(=O)Nc1ccc(Cl)cc1)NC(=O)c1ccccc1F is ____.
Result: 95 % of control

Task: Another molecule to look at: [O-]/[N+](=C\c1c(Cl)cccc1Cl)CC1(O)CCCCC1
Result: 99 % of control

Task: Another molecule to look at: Cc1ccc(NC(=O)c2ccc(Cl)cc2Cl)cc1C
Result: 104 % of control

Task: Another molecule to look at: CN(C)CCN(C)C
Result: 95 % of control

---

The entries below come with measured T/C values attached.
Tested on: P388 leukemia ip, CD2F1 mice, survival T/C
test-method-notes: NCI In Vivo Anticancer Drug Screen. Data for tumor model P388 Leukemia (intraperitoneal) in CD2F1 (CDF1) mice
protocol-conditions: endpoint: median survival time; dose: 200.0 mg/kg/injection; schedule: Q01DX005 (ip); vehicle: Klucel (hydroxypropylcellulose) (HPC); higher = longer survival
Inconclusive results and toxic doses are left out.

Example compounds with recorded T/C:
compound	T/C
O=c1cc(-c2ccccc2)oc2c1CCCC2	101 % of control
CCCCOC(=O)/C=C/C(=O)N1CCN(C(=O)/C=C/C(=O)OCCCC)C(C)C1 (stereo not given)	96 % of control
O=C(O)c1cnccc1C(=O)c1ccccc1	92 % of control

Task: Fill in the blank: the reported T/C of C/C(=C\C(=O)c1cccc(F)c1)N1CCN(c2ccc(F)cc2)CC1 is ____.
Result: 100 % of control

Task: Another compound to look at: CCC(C)NS(=O)(=O)c1ccccc1C(=O)OC (stereo not given)
Result: 97 % of control

Task: Another compound to look at: CSc1ncn(C)c1C(N)=O
Result: 99 % of control

Task: Another compound to look at: N#Cc1c(C(F)(F)F)cc(-c2cccs2)nc1SC(C(=O)Nc1cc(C(F)(F)F)cc(C(F)(F)F)c1)c1ccccc1 (stereo not given)
Result: 90 % of control

Task: Another compound to look at: Fc1ccc2[nH]c3c(c2c1)-c1ncncc1CC3
Result: 101 % of control

Task: Another compound to look at: CC(C)(C)c1cc2c(O)c(c1)Cc1cc(C(C)(C)C)cc(c1O)Cc1cc(C(C)(C)C)cc(c1O)Cc1cc(C(C)(C)C)cc(c1O)Cc1cc(C(C)(C)C)cc(c1O)Cc1cc(C(C)(C)C)cc(c1O)C2
Result: 92 % of control

Task: Another compound to look at: O=C1CCCC2=C1CC1=C(CCCC1=O)N2
Result: 90 % of control

---

Tested on: P388 leukemia ip, CD2F1 mice, survival T/C
test-method-notes: NCI In Vivo Anticancer Drug Screen. Data for tumor model P388 Leukemia (intraperitoneal) in CD2F1 (CDF1) mice
protocol-conditions: endpoint: median survival time; dose: 200.0 mg/kg/injection; schedule: Q04DX003 (ip); vehicle: saline; higher = longer survival
Inconclusive results and toxic doses are left out.
The entries below come with measured T/C values attached.

Example molecules with recorded T/C:
> print(dat)
                                   molecule            result
1  CC(C)(C(=O)O)C(Nc1ncnc2c1ncn2C1OC(CO)C(O)C1O)C(=O)O (configuration not stated)  106 % of control
2  Cc1cc[n+](-c2nc3c([O-])n(C)c(=O)n(C)c-3n2)cc1   99 % of control
3  O=C1C2CCCC1C(c1ccccc1Cl)NC2c1ccccc1Cl (configuration not stated)   96 % of control
4           COC(=S)SCN(CSC(=S)OC)c1ccccc1Cl  100 % of control
5              Brc1nc(-[n+]2ccccc2)[n-]c1Br   99 % of control

Task: // map NCCC(=O)CN to recorded T/C (system: P388 leukemia ip, CD2F1 mice, survival T/C)
Result: 109 % of control

Task: Another molecule to look at: CCOP(=O)(c1ccccc1)N1CCOCC1 (configuration not stated)
Result: 108 % of control

---

The entries below come with measured T/C values attached.
Test system: P388 leukemia ip, CD2F1 mice, survival T/C
test-method-notes: NCI In Vivo Anticancer Drug Screen. Data for tumor model P388 Leukemia (intraperitoneal) in CD2F1 (CDF1) mice
protocol-conditions: endpoint: median survival time; dose: 200.0 mg/kg/injection; schedule: Q04DX003 (ip); vehicle: saline with Tween-80; higher = longer survival
Toxic doses and inconclusive results are not listed.

Example compounds with recorded T/C:
> print(dat)
                                   compound  parameter.measured            result
1  CC(c1ccccc1)C1(C)NC(=O)NC1=O (stereo unspecified)                 T/C  101 % of control
2         Clc1cccc(-c2nc3ccccc3c3ccccc23)c1                 T/C   90 % of control
3                        Nc1cc(=O)[nH][nH]1                 T/C  100 % of control
4                   COC(=O)c1[nH]cc2ccccc12                 T/C  104 % of control
5                    O/N=C\c1ccc(/C=N/O)cc1                 T/C   95 % of control

// next item, T/C requested
Task: Fill in the blank: the reported T/C of CC(=O)OC1OC(CF)C(OC(C)=O)C1OC(C)=O (stereo unspecified) is ____.
Result: 93 % of control
